procedureText: in vivo
Assay type: in vivo, Sprague-Dawley rats
recordedConditions: male, Sprague-Dawley, rat, in vivo, iv, AUC0-∞
experimentalReadout: AUC(0-inf) (ng·h/mL)
Response body: numeric value in ng·h/mL, unit text excluded.

Quick check: AUC(0-inf) of C=C[C@@H]1C2=CCOC(=O)C2=CO[C@H]1O[C@@H]1O[C@H](CO)[C@@H](O)[C@H](O)[C@H]1O [GPS, gentiopicroside] ?
68.2

====

procedureText: Multi-component PK in rats after i.v. administration of ASEP
Type: in vivo, Sprague-Dawley rats
recordedConditions: male, Sprague-Dawley, rat, in vivo, iv, 1.76 ml/kg; read-out: Cl (converted)
experimentalReadout: clearance

Quick check: clearance of COc1cc(/C=C/CO)cc(OC)c1O[C@@H]1O[C@H](CO)[C@@H](O)[C@H](O)[C@H]1O [EB, eleutheroside B] ?
9.17 mL/min
